Data credit: patent US11760773B2

# MEASUREMENT PROTOCOL: Comparative plasma PK of Int 1-4 versus gemcitabine in mouse (study a)
# Format: in vivo
# STUDY CONDITIONS: mouse; plasma, CD-1 mice, after iv Int 1-4 9.4 mg/kg
MEASURE: clearance (mL/min/kg)
Numbers only, in mL/min/kg.

Query: What does the record list as clearance for COc1cc(OC)c2oc(COC(=O)Nc3ccn([C@@H]4O[C@H](CO)[C@@H](O)C4(F)F)c(=O)n3)cc2c1 ?
Reply: 27.1

* * *

# MEASUREMENT PROTOCOL: Compound 1 and gemcitabine plasma PK in the male cynomolgus monkey (study h)
# Format: in vivo
# STUDY CONDITIONS: plasma, after iv gemcitabine 2.28 mg/kg, read-out: MRT0-inf
MEASURE: MRT inf
Hi, when you answer, please include the unit after the number. Thanks!

Query: What does the record list as MRT inf for Nc1ccn([C@@H]2O[C@H](CO)[C@@H](O)C2(F)F)c(=O)n1 [Gemcitabine, gemcitabine] ?
Reply: 1.2 min

* * *

# MEASUREMENT PROTOCOL: Compound 1 and gemcitabine plasma PK in the male cynomolgus monkey (study h)
# Type: in vivo
# STUDY CONDITIONS: plasma, after iv Compound 1 5 mg/kg
Structures can show the parent of a compound that is named as a salt.
MEASURE: C0
Hi, when you answer, please include the unit after the number. Thanks!

Query: What does the record list as C0 for COc1cc(OC)c2oc(COC(=O)Nc3ccn([C@@H]4O[C@H](COP(=O)(O)O)[C@@H](O)C4(F)F)c(=O)n3)cc2c1 [Compound 1, ammonium salt] ?
Reply: 139 µg/mL

* * *

# MEASUREMENT PROTOCOL: Compound 1 and gemcitabine plasma PK in the male cynomolgus monkey (study h)
# Format: in vivo
# STUDY CONDITIONS: plasma, after iv gemcitabine 2.28 mg/kg, read-out: Vdss
MEASURE: Vd (L/kg)
One number for each entry, in L/kg.

Query: What does the record list as Vd for Nc1ccn([C@@H]2O[C@H](CO)[C@@H](O)C2(F)F)c(=O)n1 ?
Reply: 0.231

* * *

# MEASUREMENT PROTOCOL: Int 1-4 plasma PK in the male cynomolgus monkey (study f)
# Format: in vivo
# STUDY CONDITIONS: after iv Int 1-4 5 mg/kg (study f), read-out: MRT0-last
MEASURE: MRT last (min)
Numbers only, in min.

Would you mind listing MRT last for each of the following compounds?
1. Nc1ccn([C@@H]2O[C@H](CO)[C@@H](O)C2(F)F)c(=O)n1 [Gemcitabine, gemcitabine]
2. COc1cc(OC)c2oc(COC(=O)Nc3ccn([C@@H]4O[C@H](CO)[C@@H](O)C4(F)F)c(=O)n3)cc2c1 [Int 1-4]

Reply:
1: 11.4; 2: 18.6

* * *

Record form. Attribute: half-life. Fill in for each entry.
# MEASUREMENT PROTOCOL: Compound 1 and gemcitabine plasma PK in the male cynomolgus monkey (study h)
# Assay type: in vivo
# STUDY CONDITIONS: plasma, after iv Compound 1 5 mg/kg
Where a name gives a salt, the structure may show the parent alone.
Hi, when you answer, please include the unit after the number. Thanks!

Nc1ccn([C@@H]2O[C@H](CO)[C@@H](O)C2(F)F)c(=O)n1 [Gemcitabine, gemcitabine] :: 7.8 min
COc1cc(OC)c2oc(COC(=O)Nc3ccn([C@@H]4O[C@H](COP(=O)(O)O)[C@@H](O)C4(F)F)c(=O)n3)cc2c1 [Compound 1, ammonium salt] :: 0.6 min

Alright, here's another molecule for you.
Query: What does the record list as half-life for COc1cc(OC)c2oc(COC(=O)Nc3ccn([C@@H]4O[C@H](CO)[C@@H](O)C4(F)F)c(=O)n3)cc2c1 [Int 1-4] ?
Reply: 45.6 min

* * *

# MEASUREMENT PROTOCOL: Compound 1 and gemcitabine plasma PK in the male cynomolgus monkey (study h)
# Assay type: in vivo
# STUDY CONDITIONS: plasma, after iv gemcitabine 2.28 mg/kg
MEASURE: C0 (ng/mL)
Answers are plain numbers, in ng/mL.

Query: What does the record list as C0 for Nc1ccn([C@@H]2O[C@H](CO)[C@@H](O)C2(F)F)c(=O)n1 ?
Reply: 13400

* * *

# MEASUREMENT PROTOCOL: Int 1-4 and gemcitabine comparative PK in male cynomolgus monkey (study g)
# Type: in vivo
# STUDY CONDITIONS: plasma, male cynomolgus monkey, after iv Int 1-4 10 mg/kg (study g); read-out: AUC0-inf
Record form. Attribute: AUC(0-inf). Fill in for each entry.
Give bare numbers, in ng·h/mL.

Nc1ccn([C@@H]2O[C@H](CO)[C@@H](O)C2(F)F)c(=O)n1 [Gemcitabine, gemcitabine] :: 17.5

Alright, here's another compound for you.
Query: What does the record list as AUC(0-inf) for COc1cc(OC)c2oc(COC(=O)Nc3ccn([C@@H]4O[C@H](CO)[C@@H](O)C4(F)F)c(=O)n3)cc2c1 [Int 1-4] ?
Reply: 11900

* * *

# MEASUREMENT PROTOCOL: Int 1-4 and gemcitabine comparative PK in male cynomolgus monkey (study g)
# Assay type: in vivo
# STUDY CONDITIONS: plasma, male cynomolgus monkey, after iv gemcitabine 2.65 mg/kg; read-out: MRT0-last
MEASURE: MRT last (s)
Numbers only, in s.

Query: What does the record list as MRT last for Nc1ccn([C@@H]2O[C@H](CO)[C@@H](O)C2(F)F)c(=O)n1 ?
Reply: 36

* * *

# MEASUREMENT PROTOCOL: Int 1-4 plasma PK in the male cynomolgus monkey (study f)
# Type: in vivo
# STUDY CONDITIONS: after iv Int 1-4 5 mg/kg (study f), read-out: C0
MEASURE: C0 (ng/mL)
Answers are plain numbers, in ng/mL.

COc1cc(OC)c2oc(COC(=O)Nc3ccn([C@@H]4O[C@H](CO)[C@@H](O)C4(F)F)c(=O)n3)cc2c1 :: 81000

Query: What does the record list as C0 for Nc1ccn([C@@H]2O[C@H](CO)[C@@H](O)C2(F)F)c(=O)n1 ?
Reply: 20.5

* * *

# MEASUREMENT PROTOCOL: Comparative plasma PK of Compound 1 versus Int 1-4 in male CD-1 mice (study b)
# Format: in vivo
# STUDY CONDITIONS: male, CD-1, mouse, iv, 11.6 mg/kg, after iv Compound 1 11.6 mg/kg, read-out: MRT0-last
# Description: Objectives: to compare the plasma pharmacokinetics and stability of Compound 1 with its non-phosphorylated SMDC analog (Int 1-4) and in plasma following a single intravenous infusion administration of Compound 1 at 11.6 mg/kg and 23.2 mg/kg with Int 1-4 (formulation F1 & F2) at 10.0 mg/kg in male CD-1 mice PK measurements: compare PK parameters C0, CL, Vdss, Cmax, tmax, t1/2, AUC(0-t), AUC(0-inf), MRT(0-t), MRT(0-inf) for Compound 1 and Int 1-4
Where a name gives a salt, the structure may show the parent alone.
Record form. Attribute: MRT last. Fill in for each entry.
One number for each entry, in min.

COc1cc(OC)c2oc(COC(=O)Nc3ccn([C@@H]4O[C@H](CO)[C@@H](O)C4(F)F)c(=O)n3)cc2c1 :: 33.2

Would you mind listing MRT last for each of the following molecules?
1. COc1cc(OC)c2oc(COC(=O)Nc3ccn([C@@H]4O[C@H](COP(=O)(O)O)[C@@H](O)C4(F)F)c(=O)n3)cc2c1 [Compound 1, ammonium salt]
2. Nc1ccn([C@@H]2O[C@H](CO)[C@@H](O)C2(F)F)c(=O)n1

Reply:
1: 0.648; 2: 60.6

* * *

# MEASUREMENT PROTOCOL: Mouse plasma stability (Compound 1)
# Assay type: in vitro ADME
# STUDY CONDITIONS: CD-1, 3 μM, 37° C., read-out: t1/2 Mean ± SE
MEASURE: half-life at 3 μM (min)
Give bare numbers, in min.

Query: What does the record list as half-life at 3 μM for CC1CC(OC(=O)C(O)c2ccccc2)CC(C)(C)N1C (stereo not shown) [Eucatropine, reference compound] ?
Reply: 22.5

* * *

# MEASUREMENT PROTOCOL: Monkey liver S9 stability
# Type: in vitro ADME
# STUDY CONDITIONS: monkey, liver S9, monkey liver S9 experiment; read-out: intrinsic clearance value
MEASURE: microsomal CLint (µL/min/mg)
Give bare numbers, in µL/min/mg.

Query: What does the record list as microsomal CLint for COc1cc(OC)c2oc(COC(=O)Nc3ccn([C@@H]4O[C@H](CO)[C@@H](O)C4(F)F)c(=O)n3)cc2c1 [Int 1-4] ?
Reply: 15.5

* * *

# MEASUREMENT PROTOCOL: Liver microsomal stability, monkey
# Type: in vitro ADME
# STUDY CONDITIONS: monkey liver microsomes
MEASURE: half-life (min)
Answers are plain numbers, in min.

Query: What does the record list as half-life for COc1cc(OC)c2oc(COC(=O)Nc3ccn([C@@H]4O[C@H](CO)[C@@H](O)C4(F)F)c(=O)n3)cc2c1 ?
Reply: 34
